I'd appreciate it if you could supply IC50 values for the items below.
Target: 20S Human Erythrocyte Proteasome (HEP) (Homo sapiens, UniProt P20618+P28074)
Construct: 20S Human Erythrocyte Proteasome (HEP), purchased from Immatics Biotechnologies Inc
Assay: Chymotrypsin-like activity of 20S Human Erythrocyte Proteasome (HEP), IC50 determination
Conditions: assay of Example C, inhibition of HEP

Req: IC50 lookup needed for CC(C)C[C@H](NC(=O)[C@H](CCCNC(=N)N[N+](=O)[O-])NC(=O)CCCCCc1ccccc1)B1O[C@@H]2C[C@@H]3C[C@@H](C3(C)C)[C@]2(C)O1 [D.3.131] , thanks.
Resp: < 10 nM

Req: IC50 lookup needed for CC(C)C[C@H](NC(=O)[C@H](CCCNC(=N)N[N+](=O)[O-])NC(=O)CCc1c[nH]c2ccccc12)B1O[C@@H]2C[C@@H]3C[C@@H](C3(C)C)[C@]2(C)O1 [D.3.103] , thanks.
Resp: < 10 nM

Req: IC50 lookup needed for CC(C)C[C@H](NC(=O)[C@H](CCCNC(=N)N[N+](=O)[O-])NC(=O)Cc1ccccc1I)B(O)O [E.2.13] , thanks.
Resp: < 10 nM

Req: IC50 lookup needed for CCCCCCCCCCC(=O)N[C@@H](CCCNC(=N)N[N+](=O)[O-])C(=O)N[C@@H](CC(C)C)B1O[C@@H]2C[C@@H]3C[C@@H](C3(C)C)[C@]2(C)O1 [D.3.129] , thanks.
Resp: < 10 nM

Req: IC50 lookup needed for CC(C)C[C@H](NC(=O)[C@@H](NS(=O)(=O)c1ccc2ccccc2c1)[C@@H](C)O)B1O[C@@H]2C[C@@H]3C[C@@H](C3(C)C)[C@]2(C)O1 [D.4.9] , thanks.
Resp: < 100 nM

Req: IC50 lookup needed for CC(C)C[C@H](NC(=O)[C@H](CCCNC(=N)N[N+](=O)[O-])NC(=O)CCCC1CCN(C)CC1)B1O[C@@H]2C[C@@H]3C[C@@H](C3(C)C)[C@]2(C)O1 [D.1.10] , thanks.
Resp: < 100 nM

Req: IC50 lookup needed for CSCCC(=O)N[C@@H](CCCNC(=N)N[N+](=O)[O-])C(=O)N[C@@H](CC(C)C)B(O)O [E.2.50] , thanks.
Resp: < 10 nM

Req: IC50 lookup needed for CCCCc1ccc(C(=O)N[C@@H](CNS(C)(=O)=O)C(=O)N[C@@H](CC(C)C)B(O)O)cc1 [E.5.3] , thanks.
Resp: < 100 nM

Req: IC50 lookup needed for CCCCOc1ccc(S(=O)(=O)N[C@@H](CCCNC(=N)N[N+](=O)[O-])C(=O)N[C@@H](CC(C)C)B2O[C@@H]3C[C@@H]4C[C@@H](C4(C)C)[C@]3(C)O2)cc1 [D.4.6] , thanks.
Resp: < 100 nM

Req: IC50 lookup needed for CC(C)C[C@H](NC(=O)[C@H](CCCNC(=N)N[N+](=O)[O-])NC(=O)CCCCCCCCCN1C(=O)c2ccccc2C1=O)B1O[C@@H]2C[C@@H]3C[C@@H](C3(C)C)[C@]2(C)O1 [D.2] , thanks.
Resp: < 10 nM

Req: IC50 lookup needed for CCc1ccc(OCC(=O)N[C@@H](CCCNC(=N)N[N+](=O)[O-])C(=O)N[C@@H](CC(C)C)B(O)O)cc1 [E.2.55] , thanks.
Resp: < 10 nM

Req: IC50 lookup needed for CC(C)C[C@H](NC(=O)[C@H](CCCNC(=N)N[N+](=O)[O-])NC(=O)/C=C/c1ccccc1Br)B1O[C@@H]2C[C@@H]3C[C@@H](C3(C)C)[C@]2(C)O1 [D.3.34] , thanks.
Resp: < 10 nM

###

Molecular target: proteasome in Molt-4 cells (human leukemia) (Homo sapiens, UniProt P20618+P28074)
Sequence (P28074 60-263): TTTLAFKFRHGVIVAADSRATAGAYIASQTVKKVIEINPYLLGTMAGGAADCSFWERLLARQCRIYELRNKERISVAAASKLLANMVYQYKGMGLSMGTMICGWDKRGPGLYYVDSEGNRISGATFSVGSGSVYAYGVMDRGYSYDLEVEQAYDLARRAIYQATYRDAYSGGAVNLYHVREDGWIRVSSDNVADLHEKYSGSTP
Sequence (P20618 29-241): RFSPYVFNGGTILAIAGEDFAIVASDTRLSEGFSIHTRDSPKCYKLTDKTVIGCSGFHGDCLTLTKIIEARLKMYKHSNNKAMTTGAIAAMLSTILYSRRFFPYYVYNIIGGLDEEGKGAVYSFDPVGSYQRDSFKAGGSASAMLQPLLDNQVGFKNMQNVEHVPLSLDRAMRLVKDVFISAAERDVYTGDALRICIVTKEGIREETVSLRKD
Type: cell-based
Settings: assay of Example E, inhibition of MOLT4; read-out: MOLT4 (EC50)
I'd appreciate it if you could supply EC50 values for the items below.

Req: # get_value(readout= EC50, system= proteasome in Molt-4 cells (human leukemia) (Homo sapiens, UniProt P20618+P28074)) for CC(C)C[C@H](NC(=O)[C@H](CCCNC(=N)N[N+](=O)[O-])NC(=O)/C=C/c1ccccc1Br)B1O[C@@H]2C[C@@H]3C[C@@H](C3(C)C)[C@]2(C)O1
Resp: < 0.2 µM

Req: # get_value(readout= EC50, system= proteasome in Molt-4 cells (human leukemia) (Homo sapiens, UniProt P20618+P28074)) for CC(C)CCCC(=O)N[C@@H](CCCNC(=N)N[N+](=O)[O-])C(=O)N[C@@H](CC(C)C)B(O)O
Resp: > 10 µM

Req: # get_value(readout= EC50, system= proteasome in Molt-4 cells (human leukemia) (Homo sapiens, UniProt P20618+P28074)) for CCCCc1ccc(C(=O)N[C@@H](CNC(=O)OCc2ccccc2)C(=O)N[C@@H](CC(C)C)B2O[C@@H]3C[C@@H]4C[C@@H](C4(C)C)[C@]3(C)O2)cc1
Resp: < 0.2 µM

Req: # get_value(readout= EC50, system= proteasome in Molt-4 cells (human leukemia) (Homo sapiens, UniProt P20618+P28074)) for CC(C)C[C@H](NC(=O)[C@@H](NC(=O)c1ccc(-c2cccnc2)cc1)[C@@H](C)O)B(O)O
Resp: < 0.2 µM

Req: # get_value(readout= EC50, system= proteasome in Molt-4 cells (human leukemia) (Homo sapiens, UniProt P20618+P28074)) for CCCC/C=C/C(=O)N[C@@H](CCCNC(=N)N[N+](=O)[O-])C(=O)N[C@@H](CC(C)C)B1O[C@@H]2C[C@@H]3C[C@@H](C3(C)C)[C@]2(C)O1
Resp: < 0.2 µM

Req: # get_value(readout= EC50, system= proteasome in Molt-4 cells (human leukemia) (Homo sapiens, UniProt P20618+P28074)) for CCCCCCCCCCCCC(=O)N[C@H](C(=O)N[C@@H](CC(C)C)B(O)O)[C@@H](C)O
Resp: < 0.2 µM

###

I'd appreciate it if you could supply pIC50 values for the items below.
Target: 20S Human Erythrocyte Proteasome (HEP) (Homo sapiens, UniProt P20618+P28074)
Construct: 20S Human Erythrocyte Proteasome (HEP), purchased from Immatics Biotechnologies Inc; purchased Immatics Biotechnologies Inc., Tübingen, Germany; host or cells: human erythrocytes (natural source)
Assay: Chymotrypsin-like activity of 20S Human Erythrocyte Proteasome (HEP), IC50 determination
Type: biochemical
Conditions: assay of Example C, inhibition of HEP
pIC50: −log10 of the molar value.

Req: pIC50 lookup needed for CC(C)C[C@H](NC(=O)[C@H](CCCN/C(N)=N/[N+](=O)[O-])NC(=O)C(CCCCCCCCN1C(=O)c2ccccc2C1=O)C1CCCC1)B(O)O (stereo partly shown) , thanks.
Resp: > 8.00

Req: pIC50 lookup needed for CC(C)C[C@H](NC(=O)[C@@H](NS(=O)(=O)c1ccc2ccccc2c1)[C@@H](C)O)B(O)O , thanks.
Resp: > 7.00

Req: pIC50 lookup needed for CC(C)C[C@H](NC(=O)[C@H](CCCNC(=N)N[N+](=O)[O-])NC(=O)CCc1cccs1)B(O)O , thanks.
Resp: > 8.00

Req: pIC50 lookup needed for Cc1ccc(OCC(=O)N[C@@H](CCCNC(=N)N[N+](=O)[O-])C(=O)N[C@@H](CC(C)C)B(O)O)cc1C , thanks.
Resp: > 8.00

###

Structures can show the parent of a compound that is named as a salt.
I'd appreciate it if you could supply melting point values for the items below.

Req: melting point lookup needed for CCCCc1ccc(C(=O)N[C@@H](CNS(=O)(=O)c2ccc(N3CCOCC3)nc2)C(=O)N[C@@H](CC(C)C)B(O)O)cc1.Cl [E.5.27] , thanks.
Resp: 182 to 184 °C

Req: melting point lookup needed for CCCCc1ccc(C(=O)N[C@@H](CNC(=O)OCc2ccccc2)C(=O)N[C@@H](CC(C)C)B2O[C@@H]3C[C@@H]4C[C@@H](C4(C)C)[C@]3(C)O2)cc1 [D.16.6] , thanks.
Resp: 95 to 100 °C

Req: melting point lookup needed for CCCCc1ccc(C(=O)N[C@@H](CNC(=O)c2ccc(-n3cncn3)cc2)C(=O)N[C@@H](CC(C)C)B(O)O)cc1 (as salt: hydrochloride) [E.5.40] , thanks.
Resp: 192 to 195 °C

Req: melting point lookup needed for CCCCc1ccc(C(=O)N[C@@H](CNC(=O)c2ccc(S(C)(=O)=O)cc2)C(=O)N[C@@H](CC(C)C)B(O)O)cc1 [E.5.20] , thanks.
Resp: 168 to 170 °C

Req: melting point lookup needed for CCCCc1ccc(C(=O)N[C@@H](CNC(C)=O)C(=O)N[C@@H](CC(C)C)B2O[C@@H]3C[C@@H]4C[C@@H](C4(C)C)[C@]3(C)O2)cc1 [D.24.3] , thanks.
Resp: 133 to 135 °C

Req: melting point lookup needed for CCCCc1ccc(C(=O)N[C@@H](CNC(=O)c2ccc(S(N)(=O)=O)cc2)C(=O)N[C@@H](CC(C)C)B(O)O)cc1 [E.5.17] , thanks.
Resp: 156 to 159 °C

Req: melting point lookup needed for CCCCc1ccc(C(=O)N[C@@H](CNS(=O)(=O)c2ccc(F)cc2)C(=O)N[C@@H](CC(C)C)B(O)O)cc1 [E.5.11] , thanks.
Resp: 130 to 132 °C

Req: melting point lookup needed for CC(C)C[C@H](NC(=O)[C@H](CNS(=O)(=O)c1ccc(F)cc1)NC(=O)c1ccc(Oc2ccccc2)cc1)B(O)O [E.5.30] , thanks.
Resp: 150 to 155 °C
